Here's what we have: IC50 numbers for BMP2K (Homo sapiens, UniProt Q9NSY1).

[[record]]
compound = "Cl.NCC1(c2nc(-c3ccc(Cl)c(O)c3)c(-c3ccncc3)[nH]2)CCCCC1 [TCMDC-141154]"
readout_kind = "IC50"
experimental_result = "> 20 µM"


Turning now to a further compound:
Return reported IC50; argument: CN(C)CC(O)COc1ccc(Nc2ncc([N+](=O)[O-])c(Nc3ccccc3O)n2)cc1.O=C(O)C(F)(F)F (centres unmarked) [TCMDC-141399]
> 20 µM

---

# system name: DSTYK (Homo sapiens, UniProt Q6XUX3)
# Sequence (Q6XUX3 whole entry): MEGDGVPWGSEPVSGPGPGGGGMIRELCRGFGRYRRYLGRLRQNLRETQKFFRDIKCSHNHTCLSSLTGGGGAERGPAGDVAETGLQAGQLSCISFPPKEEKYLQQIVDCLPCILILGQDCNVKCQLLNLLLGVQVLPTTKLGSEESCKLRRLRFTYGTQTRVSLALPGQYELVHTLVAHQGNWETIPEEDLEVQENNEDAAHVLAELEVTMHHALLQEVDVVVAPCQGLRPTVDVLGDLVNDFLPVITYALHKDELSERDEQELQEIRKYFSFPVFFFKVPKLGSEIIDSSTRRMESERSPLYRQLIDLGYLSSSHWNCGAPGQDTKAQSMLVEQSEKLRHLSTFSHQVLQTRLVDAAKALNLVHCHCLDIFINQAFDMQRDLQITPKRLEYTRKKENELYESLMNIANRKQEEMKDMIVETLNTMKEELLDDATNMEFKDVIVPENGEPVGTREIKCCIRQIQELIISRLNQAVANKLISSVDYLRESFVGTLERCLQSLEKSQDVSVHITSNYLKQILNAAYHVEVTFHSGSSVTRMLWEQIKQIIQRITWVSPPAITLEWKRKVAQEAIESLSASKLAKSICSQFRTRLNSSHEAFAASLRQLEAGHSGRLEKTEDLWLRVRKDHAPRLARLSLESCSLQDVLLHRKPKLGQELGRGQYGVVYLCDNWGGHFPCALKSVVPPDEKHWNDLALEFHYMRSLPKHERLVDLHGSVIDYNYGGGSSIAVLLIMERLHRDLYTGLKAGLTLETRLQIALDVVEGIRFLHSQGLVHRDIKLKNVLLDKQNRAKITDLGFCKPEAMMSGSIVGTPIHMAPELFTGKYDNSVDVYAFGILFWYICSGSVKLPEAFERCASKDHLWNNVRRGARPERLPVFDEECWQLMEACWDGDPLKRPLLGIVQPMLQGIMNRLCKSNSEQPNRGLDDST
# assay method text: biochemical
pIC50: −log10 of the molar value.
# maps each entry to its pIC50

Return reported pIC50; argument: `Cl.NCC1(c2nc(-c3ccc(Cl)c(O)c3)c(-c3ccncc3)[nH]2)CCCCC1`
< 4.70

Quick one: CN(C)CC(O)COc1ccc(Nc2ncc([N+](=O)[O-])c(Nc3ccccc3O)n2)cc1.O=C(O)C(F)(F)F (centres unmarked)
< 4.70

---

# system name: Plasmodium falciparum calcium-dependent protein kinase 1 (CDPK1) (Plasmodium falciparum, UniProt P62344)
# Construct: 6-Histidine (N); made in house
# Sequence (P62344 whole entry): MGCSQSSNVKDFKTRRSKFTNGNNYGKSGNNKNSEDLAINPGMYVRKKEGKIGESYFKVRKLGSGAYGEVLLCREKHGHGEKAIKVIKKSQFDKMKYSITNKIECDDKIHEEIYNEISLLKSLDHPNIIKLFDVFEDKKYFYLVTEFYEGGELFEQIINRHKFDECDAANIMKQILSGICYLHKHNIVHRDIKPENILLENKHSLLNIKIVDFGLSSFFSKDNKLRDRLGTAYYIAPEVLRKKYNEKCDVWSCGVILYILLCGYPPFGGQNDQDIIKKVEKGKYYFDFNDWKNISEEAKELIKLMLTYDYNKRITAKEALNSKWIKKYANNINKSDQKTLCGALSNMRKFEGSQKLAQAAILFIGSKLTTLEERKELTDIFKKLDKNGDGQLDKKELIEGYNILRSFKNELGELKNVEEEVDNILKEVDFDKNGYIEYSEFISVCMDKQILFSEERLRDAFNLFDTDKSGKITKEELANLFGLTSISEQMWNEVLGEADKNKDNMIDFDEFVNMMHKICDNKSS
# assay method text: CDPK1 Kinase-Glo ATP-consumption screen and dose-response
# Assay type: biochemical
# details: hits below 1 uM; read-out: CDPK1 IC50
readout kind: pIC50
Convention used: pIC50 is expressed as -log10 of the molar concentration.

[[record]]
compound = "Cc1cc(F)ccc1-c1nc(Nc2ccncc2)c2ccn(C)c2n1"
experimental_result = 7.40


Return reported pIC50; argument: `Cl.NCCCOc1cnc(-c2ccccc2)c2nc(-c3nonc3N)n(CCc3ccccc3)c12`
7.33

Quick one: `CCn1c(-c2nonc2N)nc2c(-c3cccc(NC(=O)Nc4cccc(Cl)c4)c3)ncc(OCCCN)c21.O=C(O)C(F)(F)F`
6.42

Quick one: Cn1cc(-c2ccnc3[nH]c(-c4cccc(CNC5CCC(O)CC5)c4)cc23)cn1.O=C(O)C(F)(F)F (stereo not shown)
7.34

Quick one: `CCn1c(-c2nonc2N)nc2c(-c3cccc(Cl)c3)ncc(OCCCNCc3cnc(C)nc3N)c21.O=C(O)C(F)(F)F`
6.57

Quick one: `COc1ccc(Nc2ncc(Cl)c(Nc3cccnc3C(N)=O)n2)cc1N1CCN(C)CC1.Cl`
6.25

Quick one: `Fc1cc(Cl)ccc1Nc1ccnc2cc(-c3ccc(CNCCN4CCOCC4)o3)ccc12`
6.42

---

Protein target, amino acids: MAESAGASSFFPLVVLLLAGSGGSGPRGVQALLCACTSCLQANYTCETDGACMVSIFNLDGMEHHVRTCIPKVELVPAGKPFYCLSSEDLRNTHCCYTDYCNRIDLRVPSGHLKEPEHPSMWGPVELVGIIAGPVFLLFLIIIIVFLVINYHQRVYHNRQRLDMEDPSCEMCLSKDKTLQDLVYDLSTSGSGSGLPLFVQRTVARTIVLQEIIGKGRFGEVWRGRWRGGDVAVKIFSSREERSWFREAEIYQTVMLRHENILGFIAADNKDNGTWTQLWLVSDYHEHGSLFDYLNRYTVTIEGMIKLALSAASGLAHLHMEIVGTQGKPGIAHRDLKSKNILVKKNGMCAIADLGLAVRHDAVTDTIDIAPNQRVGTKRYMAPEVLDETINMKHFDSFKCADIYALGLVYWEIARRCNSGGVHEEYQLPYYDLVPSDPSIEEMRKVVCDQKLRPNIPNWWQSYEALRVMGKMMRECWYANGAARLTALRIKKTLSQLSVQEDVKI
readout kind: IC50 (µM)
# unit: µM | format: bare number

[[record]]
structure_string = "Cl.NCC1(c2nc(-c3ccc(Cl)c(O)c3)c(-c3ccncc3)[nH]2)CCCCC1"
readout_kind = "IC50"
experimental_result = 0.59


Return reported IC50; argument: `CN1CCN(c2ccc(Nc3ncc(C#N)c(Nc4ccccc4C(N)=O)n3)cc2)CC1.Cl`
4

---

# system name: IKBKB (Homo sapiens)
# Sequence (O14920 whole entry): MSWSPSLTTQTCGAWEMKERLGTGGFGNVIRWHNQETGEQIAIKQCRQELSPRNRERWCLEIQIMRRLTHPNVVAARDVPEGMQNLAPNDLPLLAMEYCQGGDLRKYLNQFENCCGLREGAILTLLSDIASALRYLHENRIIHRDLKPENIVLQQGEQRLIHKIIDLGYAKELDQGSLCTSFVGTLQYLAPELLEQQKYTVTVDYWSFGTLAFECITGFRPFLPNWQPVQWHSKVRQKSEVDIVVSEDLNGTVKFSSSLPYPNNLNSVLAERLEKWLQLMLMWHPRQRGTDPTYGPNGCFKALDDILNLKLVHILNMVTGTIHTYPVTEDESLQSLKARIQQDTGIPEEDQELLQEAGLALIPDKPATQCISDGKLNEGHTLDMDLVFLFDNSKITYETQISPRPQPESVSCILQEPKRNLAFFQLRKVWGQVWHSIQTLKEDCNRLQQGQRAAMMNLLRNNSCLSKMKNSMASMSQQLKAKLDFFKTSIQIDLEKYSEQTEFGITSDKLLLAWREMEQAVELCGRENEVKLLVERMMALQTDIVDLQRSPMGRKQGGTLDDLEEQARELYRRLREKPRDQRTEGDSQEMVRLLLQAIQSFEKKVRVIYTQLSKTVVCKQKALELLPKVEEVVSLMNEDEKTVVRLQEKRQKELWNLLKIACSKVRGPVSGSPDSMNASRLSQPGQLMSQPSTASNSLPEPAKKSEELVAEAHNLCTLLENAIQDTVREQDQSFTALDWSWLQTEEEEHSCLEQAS
readout kind: IC50

[[record]]
compound = "Cl.NCC1(c2nc(-c3ccc(Cl)c(O)c3)c(-c3ccncc3)[nH]2)CCCCC1"
system_name = "IKBKB (Homo sapiens)"
experimental_result = "> 20 µM"

[[record]]
compound = "CN(C)CC(O)COc1ccc(Nc2ncc([N+](=O)[O-])c(Nc3ccccc3O)n2)cc1.O=C(O)C(F)(F)F (stereo not drawn)"
system_name = "IKBKB (Homo sapiens)"
experimental_result = "> 20 µM"


State its IC50 on IKBKB (Homo sapiens): `CN1CCN(c2ccc(Nc3ncc(C#N)c(Nc4ccccc4C(N)=O)n3)cc2)CC1.Cl`
> 20 µM

---

# system name: ADCK1 (Homo sapiens, UniProt Q86TW2)
# Sequence (Q86TW2 whole entry): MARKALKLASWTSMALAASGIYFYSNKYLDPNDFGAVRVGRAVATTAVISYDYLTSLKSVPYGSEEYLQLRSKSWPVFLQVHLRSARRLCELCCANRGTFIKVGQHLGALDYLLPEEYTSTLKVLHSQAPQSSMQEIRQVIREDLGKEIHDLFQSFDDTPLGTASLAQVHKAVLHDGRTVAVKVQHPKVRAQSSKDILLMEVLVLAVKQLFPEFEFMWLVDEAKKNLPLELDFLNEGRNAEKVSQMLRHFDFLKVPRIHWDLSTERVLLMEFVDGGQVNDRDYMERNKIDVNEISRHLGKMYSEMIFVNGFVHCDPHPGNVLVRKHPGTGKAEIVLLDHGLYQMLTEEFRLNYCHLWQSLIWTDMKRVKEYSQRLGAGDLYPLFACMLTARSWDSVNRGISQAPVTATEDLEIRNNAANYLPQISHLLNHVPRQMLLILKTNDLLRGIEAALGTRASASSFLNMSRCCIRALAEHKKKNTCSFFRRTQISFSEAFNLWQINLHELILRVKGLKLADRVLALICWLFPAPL
readout kind: pIC50
Convention used: pIC50 is expressed as -log10 of the molar concentration.

[[record]]
compound = "CN(C)CC(O)COc1ccc(Nc2ncc([N+](=O)[O-])c(Nc3ccccc3O)n2)cc1.O=C(O)C(F)(F)F (stereo not drawn)"
experimental_result = 5.74


Return reported pIC50; argument: `CN1CCN(c2ccc(Nc3ncc(C#N)c(Nc4ccccc4C(N)=O)n3)cc2)CC1.Cl`
6.00

---

pIC50: −log10 of the molar value.
Here's what we have: pIC50 numbers for CDK2 (Homo sapiens).

Return reported pIC50; argument: CN(C)CC(O)COc1ccc(Nc2ncc([N+](=O)[O-])c(Nc3ccccc3O)n2)cc1.O=C(O)C(F)(F)F (centres unmarked) [TCMDC-141399]
< 4.70

Quick one: Cl.NCC1(c2nc(-c3ccc(Cl)c(O)c3)c(-c3ccncc3)[nH]2)CCCCC1 [TCMDC-141154]
< 4.70

---

# system name: PRKCB (Homo sapiens)
# Sequence (P05771 whole entry): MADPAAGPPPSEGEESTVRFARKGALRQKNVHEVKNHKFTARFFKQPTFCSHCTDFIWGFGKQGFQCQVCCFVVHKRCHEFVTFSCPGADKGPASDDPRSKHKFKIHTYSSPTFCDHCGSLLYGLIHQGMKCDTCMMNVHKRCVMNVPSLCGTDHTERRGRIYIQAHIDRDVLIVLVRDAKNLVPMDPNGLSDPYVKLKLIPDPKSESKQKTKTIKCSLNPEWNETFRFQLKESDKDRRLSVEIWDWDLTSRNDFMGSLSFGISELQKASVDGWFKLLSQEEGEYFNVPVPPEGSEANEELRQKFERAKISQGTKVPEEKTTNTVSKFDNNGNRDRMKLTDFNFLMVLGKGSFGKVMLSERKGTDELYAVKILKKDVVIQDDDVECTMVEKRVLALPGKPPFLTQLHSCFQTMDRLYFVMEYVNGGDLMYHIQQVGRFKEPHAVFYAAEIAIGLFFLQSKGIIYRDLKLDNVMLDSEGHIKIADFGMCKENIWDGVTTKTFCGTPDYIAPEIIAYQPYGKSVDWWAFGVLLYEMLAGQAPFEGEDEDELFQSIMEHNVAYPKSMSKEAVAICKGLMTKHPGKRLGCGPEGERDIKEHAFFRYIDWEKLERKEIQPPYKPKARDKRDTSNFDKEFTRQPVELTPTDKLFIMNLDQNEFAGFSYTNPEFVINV
# assay method text: biochemical
# Design: endogenous in cells; host or cells: K562 cell extract; species or system K562 (extract); replicate k of n = 2 (each experiment ID is one independent experiment; two experiment IDs per compound)
# details: read-out: KDapp
readout kind: Kd (nM)
# unit: nM | format: bare number

Return reported Kd; argument: `CN1CCN(c2ccc(Nc3ncc(C#N)c(Nc4ccccc4C(N)=O)n3)cc2)CC1.Cl`
410

---

# system name: SLK (Homo sapiens)
# Sequence (Q9H2G2 whole entry): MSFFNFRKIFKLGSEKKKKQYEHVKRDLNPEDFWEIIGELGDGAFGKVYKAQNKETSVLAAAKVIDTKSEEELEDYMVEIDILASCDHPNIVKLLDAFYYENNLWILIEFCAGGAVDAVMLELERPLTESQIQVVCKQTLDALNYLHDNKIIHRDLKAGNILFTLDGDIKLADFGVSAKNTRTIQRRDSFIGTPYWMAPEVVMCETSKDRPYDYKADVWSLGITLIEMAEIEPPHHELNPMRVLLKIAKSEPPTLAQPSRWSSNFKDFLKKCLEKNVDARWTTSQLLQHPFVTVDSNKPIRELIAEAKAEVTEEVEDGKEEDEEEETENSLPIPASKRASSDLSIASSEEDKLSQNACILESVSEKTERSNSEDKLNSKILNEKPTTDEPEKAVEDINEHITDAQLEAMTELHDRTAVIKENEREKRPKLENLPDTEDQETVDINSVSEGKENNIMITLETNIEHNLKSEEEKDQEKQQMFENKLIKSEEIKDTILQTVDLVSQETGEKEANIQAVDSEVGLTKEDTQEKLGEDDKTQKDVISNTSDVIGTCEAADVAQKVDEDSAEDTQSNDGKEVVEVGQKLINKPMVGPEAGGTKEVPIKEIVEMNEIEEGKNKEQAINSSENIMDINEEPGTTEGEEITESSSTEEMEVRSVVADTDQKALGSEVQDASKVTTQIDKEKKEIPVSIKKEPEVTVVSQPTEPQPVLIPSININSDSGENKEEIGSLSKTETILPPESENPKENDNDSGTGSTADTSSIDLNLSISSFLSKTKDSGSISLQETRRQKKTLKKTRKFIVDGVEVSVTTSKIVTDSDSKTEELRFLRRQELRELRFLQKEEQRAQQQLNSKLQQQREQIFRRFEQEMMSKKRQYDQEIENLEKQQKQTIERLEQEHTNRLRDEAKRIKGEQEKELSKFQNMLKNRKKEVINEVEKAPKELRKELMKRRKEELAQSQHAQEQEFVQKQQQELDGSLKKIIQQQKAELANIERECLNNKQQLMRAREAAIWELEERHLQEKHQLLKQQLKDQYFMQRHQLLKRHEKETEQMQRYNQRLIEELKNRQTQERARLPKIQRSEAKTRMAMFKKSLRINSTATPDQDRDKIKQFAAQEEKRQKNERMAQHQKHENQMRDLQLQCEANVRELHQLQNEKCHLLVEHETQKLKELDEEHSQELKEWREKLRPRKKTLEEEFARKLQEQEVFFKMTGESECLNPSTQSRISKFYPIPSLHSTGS
pIC50: −log10 of the molar value.
readout kind: pIC50

Return reported pIC50; argument: `Cl.NCC1(c2nc(-c3ccc(Cl)c(O)c3)c(-c3ccncc3)[nH]2)CCCCC1`
≥ 7.49

---

Here's what we have: IC50 numbers for PIM2 (Homo sapiens, UniProt Q9P1W9).

// worked examples, IC50 included
[[record]]
compound = "CN(C)CC(O)COc1ccc(Nc2ncc([N+](=O)[O-])c(Nc3ccccc3O)n2)cc1.O=C(O)C(F)(F)F (stereo not drawn)"
readout_kind = "IC50"
experimental_result = "> 20 µM"

[[record]]
compound = "Cl.NCC1(c2nc(-c3ccc(Cl)c(O)c3)c(-c3ccncc3)[nH]2)CCCCC1"
readout_kind = "IC50"
experimental_result = "> 20 µM"


Turning now to a further compound:
Return reported IC50; argument: `CN1CCN(c2ccc(Nc3ncc(C#N)c(Nc4ccccc4C(N)=O)n3)cc2)CC1.Cl`
4.8 µM

---

# system name: DYRK1A (Homo sapiens, UniProt Q13627)
# assay method text: biochemical
# details: read-out: KDapp
readout kind: pKd
Convention used: pKd is expressed as -log10 of the molar concentration.

Return reported pKd; argument: CN(C)CC(O)COc1ccc(Nc2ncc([N+](=O)[O-])c(Nc3ccccc3O)n2)cc1.O=C(O)C(F)(F)F (stereo not shown) [TCMDC-141399]
5.54

---

# maps each entry to its IC50
# system name: Plasmodium falciparum calcium-dependent protein kinase 1 (CDPK1) (Plasmodium falciparum, UniProt P62344)
# Construct: 6-Histidine (N); made in house
# assay method text: CDPK1 Kinase-Glo ATP-consumption screen and dose-response
# Type: biochemical
# details: hits below 1 uM; read-out: CDPK1 IC50
Returns: string containing the numeric result and its unit.

[[record]]
compound = "CC(C)(NCc1ncc[nH]1)c1nc(-c2ccc(Cl)c(O)c2)c(-c2ccncc2)[nH]1.Cl [TCMDC-140686]"
experimental_result = "0.144 µM"

[[record]]
compound = "Cc1cccc2[nH]c(-c3cc(-c4cn[nH]c4)cnc3N)nc12 [TCMDC-133561]"
experimental_result = "0.296 µM"

[[record]]
compound = "O=C(Nc1c(F)cccc1F)c1cccc(-c2nn3ccccc3c2-c2ccnc(Nc3cccc(-c4cnco4)c3)n2)c1 [TCMDC-135743]"
experimental_result = "0.04 µM"

[[record]]
compound = "O=C(NCC(c1ccc(C(F)(F)F)cc1)N1CCCC1)c1cc(-c2ccncc2)c(-c2cccc(O)c2)o1.O=C(O)C(F)(F)F (stereo not shown) [TCMDC-135665]"
experimental_result = "0.283 µM"

[[record]]
compound = "Cl.NC(=O)c1ccccc1Nc1nc(Nc2cccc(N3CCN(CCO)CC3)c2)ncc1Cl [TCMDC-134114]"
experimental_result = "0.058 µM"

[[record]]
compound = "COc1cc(Nc2nccc(-c3c(-c4cccc(NC(=O)c5c(F)cccc5F)c4)nn4ccccc34)n2)cc(OC)c1OC [TCMDC-135668]"
experimental_result = "0.06 µM"


Turning now to a further compound:
Return reported IC50; argument: O=C(O)C(F)(F)F.O=c1[nH]ccc2nc(N[C@@H]3CCCNC3)nc(Nc3ccc(S(=O)(=O)N4CCOCC4)cc3)c12 [TCMDC-135038]
0.146 µM
